From: patent US9085806B2

- Test system: E. coli Strain ID 301894
- experiment.summary: Antimicrobial susceptibility testing, broth microdilution (CLSI)
- Assay type: cell-based
- stated.conditions: Escherichia coli; Strain ID 301894 ESCCOL, ESBL positive; Mueller-Hinton broth; read-out: minimum inhibition concentration (MIC)
experimental.readout: MIC

[[record]]
molecule = "CC(C)(O/N=C(\\C(=O)N[C@@H]1C(=O)N2C(C(=O)[O-])=C(C[n+]3ccccc3)CS[C@H]12)c1csc(N)n1)C(=O)O [CAZ, Ceftazidime]"
experimental_readout = "MIC"
result = "> 128 µg/mL"

[[record]]
molecule = "CO/N=C(\\C(=O)N[C@@H]1C(=O)N2C(C(=O)O)=C(COC(C)=O)CS[C@H]12)c1csc(N)n1 [CTX, Cefotaxime]"
experimental_readout = "MIC"
result = "16 µg/mL"

[[record]]
molecule = "CC1(C)S[C@@H]2[C@H](NC(=O)[C@H](N)c3ccccc3)C(=O)N2[C@H]1C(=O)O [Amp, Ampicillin]"
experimental_readout = "MIC"
result = "> 32 µg/mL"

[[record]]
molecule = "C[C@@H](O)[C@H]1C(=O)N2C(C(=O)O)=C(SCCN=CN)C[C@H]12 [IPM, Imipenem]"
experimental_readout = "MIC"
result = "≤ 2 µg/mL"

